# Tested on: Escherichia coli TOP10
# method.notes: shrunken log2 fold change of peptide-encoding DNA abundance (4.5 h post-induction vs induction); higher = less antimicrobial activity (less host growth inhibition)
# reported.conditions: time post-induction: 4.5 h; library: site-saturation at positions 5, 18, 19, 20
Note to self: values exactly at 0.02 are fulfilled. So shrunken log2 fold change at or above 0.02 is fulfilled, below is not fulfilled.

Example results:
construct.sequence | assigned.class
RRIRMRPPRLPRPRPRPPTPPRP | fulfilled
RRIRTRPPRLPRPRPRPFDSPRP | not fulfilled
RRIRKRPPRLPRPRPRPLWPPRP | fulfilled
RRIRPRPPRLPRPRPRPEKRPRP | fulfilled
RRIRNRPPRLPRPRPRPDLFPRP | not fulfilled

For this sequence, is measured shrunken log2 fold change 0.02 or higher? RRIRERPPRLPRPRPRPAHCPRP fulfilled

Same thing, different sequence: RRIRLRPPRLPRPRPRPDLGPRP not fulfilled

Same thing, different sequence: RRIRRRPPRLPRPRPRPYVCPRP not fulfilled

Same thing, different sequence: RRIRGRPPRLPRPRPRPFIQPRP not fulfilled

Same thing, different sequence: RRIRERPPRLPRPRPRPEFEPRP not fulfilled

Same thing, different sequence: RRIRQRPPRLPRPRPRPRPMPRP fulfilled

Same thing, different sequence: RRIRLRPPRLPRPRPRPALGPRP fulfilled

Same thing, different sequence: RRIRTRPPRLPRPRPRPNSSPRP not fulfilled

* * *

Can you tell me shrunken log2 fold change for the items I'm about to list?
# Tested on: Escherichia coli TOP10
# method.notes: shrunken log2 fold change of peptide-encoding DNA abundance (4.5 h post-induction vs induction); higher = less antimicrobial activity (less host growth inhibition)
# reported.conditions: time post-induction: 4.5 h; library: site-saturation at positions 5, 18, 19, 20

construct.sequence | endpoint.label | result
RRIRARPPRLPRPRPRPGQVPRP | shrunken log2 fold change | 0.402
RRIRDRPPRLPRPRPRPETLPRP | shrunken log2 fold change | 0.452
RRIRMRPPRLPRPRPRPTRFPRP | shrunken log2 fold change | 0.261
RRIRWRPPRLPRPRPRPHCPPRP | shrunken log2 fold change | -0.0401
RRIRQRPPRLPRPRPRPMQHPRP | shrunken log2 fold change | -0.165
RRIRDRPPRLPRPRPRPNCGPRP | shrunken log2 fold change | 0.387

Dear colleague, could you send me shrunken log2 fold change for each of the items below? Thanks.
1. RRIRHRPPRLPRPRPRPLTIPRP
2. RRIRKRPPRLPRPRPRPFFEPRP
3. RRIRNRPPRLPRPRPRPCYVPRP
4. RRIRSRPPRLPRPRPRPPICPRP
5. RRIRFRPPRLPRPRPRPNEYPRP

1. -0.207
2. 0.428
3. -0.0102
4. 0.635
5. -0.16

Dear colleague, could you send me shrunken log2 fold change for each of the items below? Thanks.
1. RRIRVRPPRLPRPRPRPTPSPRP
2. RRIRTRPPRLPRPRPRPNLFPRP

[0.253, 0.0121]

Dear colleague, could you send me shrunken log2 fold change for each of the items below? Thanks.
1. RRIRDRPPRLPRPRPRPFQCPRP
2. RRIRARPPRLPRPRPRPGLKPRP

1. 0.00675
2. 0.469

Dear colleague, could you send me shrunken log2 fold change for each of the items below? Thanks.
1. RRIRNRPPRLPRPRPRPVIQPRP
2. RRIRIRPPRLPRPRPRPRLEPRP
3. RRIRERPPRLPRPRPRPTHHPRP
4. RRIRYRPPRLPRPRPRPQINPRP
5. RRIRVRPPRLPRPRPRPTCTPRP
6. RRIRFRPPRLPRPRPRPQSLPRP

1. 0.0549
2. 0.117
3. -0.0607
4. -0.669
5. -0.00861
6. -0.274

Dear colleague, could you send me shrunken log2 fold change for each of the items below? Thanks.
1. RRIRDRPPRLPRPRPRPITIPRP
2. RRIRFRPPRLPRPRPRPSGYPRP

1: -0.175; 2: 0.00547

Dear colleague, could you send me shrunken log2 fold change for each of the items below? Thanks.
1. RRIRIRPPRLPRPRPRPVILPRP
2. RRIRIRPPRLPRPRPRPVCLPRP
3. RRIRPRPPRLPRPRPRPLQIPRP
4. RRIRQRPPRLPRPRPRPLAMPRP

-0.423
-0.369
-0.161
0.294

Dear colleague, could you send me shrunken log2 fold change for each of the items below? Thanks.
1. RRIRPRPPRLPRPRPRPPCYPRP
2. RRIRGRPPRLPRPRPRPPQVPRP
3. RRIRYRPPRLPRPRPRPPKNPRP
4. RRIRKRPPRLPRPRPRPFFCPRP
5. RRIRSRPPRLPRPRPRPTPKPRP

[0.0837, 0.791, -0.164, 0.232, 0.697]

* * *

# Test system: Escherichia coli TOP10
# method.notes: shrunken log2 fold change of peptide-encoding DNA abundance (4.5 h post-induction vs induction); higher = less antimicrobial activity (less host growth inhibition)
# reported.conditions: time post-induction: 4.5 h; library: site-saturation at positions 5, 18, 19, 20
Note to self: values exactly at -0.1 are y. So shrunken log2 fold change at or above -0.1 is y, below is n.

construct.sequence | assigned.class
RRIRMRPPRLPRPRPRPQSWPRP | y
RRIRHRPPRLPRPRPRPRQYPRP | n
RRIRCRPPRLPRPRPRPFCDPRP | n
RRIRCRPPRLPRPRPRPCPTPRP | y
RRIRERPPRLPRPRPRPDRCPRP | y
RRIRTRPPRLPRPRPRPMFKPRP | n
RRIRIRPPRLPRPRPRPNPKPRP | y
RRIRFRPPRLPRPRPRPHLIPRP | n
RRIRNRPPRLPRPRPRPGMSPRP | n
RRIRFRPPRLPRPRPRPGTEPRP | y

For this sequence, is measured shrunken log2 fold change -0.1 or higher? RRIRPRPPRLPRPRPRPSGEPRP y

Same thing, different sequence: RRIRRRPPRLPRPRPRPGCNPRP y

Same thing, different sequence: RRIRWRPPRLPRPRPRPYCAPRP n

Same thing, different sequence: RRIRDRPPRLPRPRPRPRWVPRP y

Same thing, different sequence: RRIRMRPPRLPRPRPRPSCRPRP y

* * *

Can you tell me shrunken log2 fold change for the items I'm about to list?
# System: Escherichia coli TOP10
# method.notes: shrunken log2 fold change of peptide-encoding DNA abundance (4.5 h post-induction vs induction); higher = less antimicrobial activity (less host growth inhibition)
# reported.conditions: time post-induction: 4.5 h; library: site-saturation at positions 5, 18, 19, 20
One number for each entry.

Dear colleague, could you send me shrunken log2 fold change for each of the items below? Thanks.
1. RRIRARPPRLPRPRPRPFGPPRP
2. RRIRDRPPRLPRPRPRPSCVPRP
3. RRIRWRPPRLPRPRPRPSMKPRP
4. RRIRCRPPRLPRPRPRPQWGPRP
5. RRIRYRPPRLPRPRPRPWLGPRP
6. RRIRRRPPRLPRPRPRPMPQPRP

1: 0.0166; 2: 0.282; 3: -0.199; 4: 0.502; 5: -0.0293; 6: 0.376

Dear colleague, could you send me shrunken log2 fold change for each of the items below? Thanks.
1. RRIRPRPPRLPRPRPRPGSVPRP
2. RRIRKRPPRLPRPRPRPWDIPRP
3. RRIRERPPRLPRPRPRPWTYPRP
4. RRIRHRPPRLPRPRPRPSRKPRP
5. RRIRKRPPRLPRPRPRPAVMPRP
6. RRIRARPPRLPRPRPRPNWDPRP

[0.0512, -0.0322, -0.104, 0.094, 0.881, 0.0564]

Dear colleague, could you send me shrunken log2 fold change for each of the items below? Thanks.
1. RRIRVRPPRLPRPRPRPDRRPRP
2. RRIRCRPPRLPRPRPRPGLIPRP

[0.206, "4.01e-05"]

Give the measured shrunken log2 fold change of RRIRKRPPRLPRPRPRPQFMPRP . -0.54

* * *

Can you tell me shrunken log2 fold change for the items I'm about to list?
# Test system: Escherichia coli TOP10;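 also: peptides expressed intracellularly from a pBAD plasmid library in pooled LB shake-flask culture, induced with 0.3% L-arabinose, DNA abundance read by NGS, three biological replicates, DESeq2 with apeglm shrinkage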
# method.notes: shrunken log2 fold change of peptide-encoding DNA abundance (4.5 h post-induction vs induction); higher = less antimicrobial activity (less host growth inhibition)
# reported.conditions: time post-induction: 4.5 h; library: site-saturation at positions 5, 18, 19, 20
Numbers only.

Dear colleague, could you send me shrunken log2 fold change for each of the items below? Thanks.
1. RRIRRRPPRLPRPRPRPYNMPRP
2. RRIRFRPPRLPRPRPRPDQYPRP
3. RRIRCRPPRLPRPRPRPYQAPRP

1. -0.499
2. -0.169
3. -1.11

Dear colleague, could you send me shrunken log2 fold change for each of the items below? Thanks.
1. RRIRDRPPRLPRPRPRPDFLPRP
2. RRIRCRPPRLPRPRPRPRSFPRP
3. RRIRTRPPRLPRPRPRPVGSPRP
4. RRIRNRPPRLPRPRPRPDLIPRP
5. RRIRLRPPRLPRPRPRPTNSPRP

1: 0.136; 2: -0.342; 3: -0.243; 4: -0.172; 5: -0.355
